- Tested on: HCT-15 colon
- methodDescription: NCI tumour cell line growth inhibition, 48 h
Provide the recorded TGI for the entries that follow.

Some compounds with recorded TGI:
| compound | result |
| --- | --- |
| Nc1nc2c(ncn2Cc2ccc(CO)cc2)c(=O)[nH]1 | > 100 µM |
| CCCCCCC[CH2][Sn]1([CH2]CCCCCCC)[O]C(=O)c2cccnc2[S]1 | > 100 µM |
| C[C@@H]1CCC2[C@@H](C)[C@@H](OCCO[C@H]3OC4O[C@@]5(C)CCC6[C@H](C)CCC([C@H]3C)[C@@]46OO5)OC3O[C@@]4(C)CCC1[C@]32OO4 (some centres undefined) | > 100 µM |
| Cc1ccc(S(=O)(=O)N/N=C/c2oc(-c3ccncc3)c(-c3ccncc3)c2[N+](=O)[O-])cc1 | > 100 µM |
| O=S(=O)(O)c1ccc(N=Nc2ccc(N=Nc3c(O)ccc4ccccc34)cc2)cc1 | > 100 µM |
| CC(C)C[C@H]1[C@@H](OCc2ccccc2)COS(=O)N1[C@H](C)c1ccccc1 (some centres undefined) | > 100 µM |
| COC(=O)CN(C)P(=O)(N1CC1)N1CC1 | > 100 µM |
| CCCCCCNC(=O)c1nc(-c2ccccc2)oc1Cc1ccc(OP(=O)(O)O)cc1 | 37.2 µM |

// next entry
Data request: Provide measured TGI value, entry: N=c1ccn2c(n1)OC1C(O)C(CO)OC12 (centres undefined)
Data returned: > 1000 µM

---

- System: SK-MEL-2 melanoma
- methodDescription: NCI tumour cell line growth inhibition, 48 h
measureName: TGI (µM)
Numbers only, in µM.

Some molecules with recorded TGI:
| molecule | targetOfAssay | readoutUnit | numericValue |
| --- | --- | --- | --- |
| Cc1ccc(/C=C/c2c(C(=O)/C=C/c3ccc(C(F)(F)F)cc3)c(C)nc3ccccc23)cc1 | SK-MEL-2 melanoma | µM | 3.92 |
| COc1ccc(-c2nc(SCC(=O)N/N=C/c3ccc(O)c(OC)c3)[nH]c2-c2ccc(OC)cc2)cc1 | SK-MEL-2 melanoma | µM | 33.5 |

Hey, can you go through the list below and give me TGI for every item?
1. CCCCn1c(C)c2c(c1C)C(=O)N(CC(O)CN1CCc3ccccc3C1)C2=O (stereo not given)
2. C=CCCCCCCCCCCC1(O)C=CC2=[N+](CCCCCN=C(N)N)CCCN21 (stereo not given)
3. CCN(CC)CCOc1ccc(/C=C2\CC3C4CC=C5C[C@@H](O)CC[C@]5(C)C4CC[C@]3(C)C2=O)cc1OC (stereo not given in full)
4. O=C(c1ccc(Cl)cc1)c1cnc(Nc2ccccc2Cl)s1
5. COc1cccc2c1C(=O)c1c(O)c3c(c(O)c1C2=O)CC(O)(/C(C)=N/NC(=O)CCC(=O)N/N=C(\C)C1(O)Cc2c(O)c4c(c(O)c2C(OC2CC(N)C(O)C(C)O2)C1)C(=O)c1c(OC)cccc1C4=O)CC3OC1CC(N)C(O)C(C)O1 (stereo not given)
6. C=CC(=O)N1CCC(C2CCNc3c(C(N)=O)c(-c4ccc(Oc5ccccc5)cc4)nn32)CC1 (stereo not given)

Data returned:
14.8
47.2
78.3
30.7
0.343
40.4

Hey, can you go through the list below and give me TGI for every item?
1. COc1c(OC)c(OC)c(C(=O)/C=C/c2ccccc2)c(OC)c1OC
2. O=C(CC(O)(C(F)(F)F)C(F)(F)F)c1cc(CC(=O)C(O)(C(F)(F)F)C(F)(F)F)cc(CC(=O)C(O)(C(F)(F)F)C(F)(F)F)c1
3. COc1cccc2c1C(=O)c1c(O)c3c(c(O)c1C2=O)C[C@@](O)(C(=O)CO)C[C@@H]3OC1CC(N)C(OC)C(C)O1 (stereo not given in full)

Data returned:
[45, 3.71, 0.407]
